Every entry's value here was drawn from patent US20240261274A1.

Target: Full length wild-type cereblon CRBN (Homo sapiens)
Construct: Full length wild-type cereblon CRBN (80.0 nM, 10 μL) was incubated in assay buffer
Assay: Fluorescence polarization (FP) assay indicating cereblon binding
Conditions: Table 3B; read-out: rFP IC50
Quick list: IC50 per entry.
VALUE_KIND: IC50

[[record]]
molecule = "O=C1CCC(N2Cc3c(F)cc(COC(=O)Nc4cc(F)c(-c5ccccc5)c(F)c4)cc3C2=O)C(=O)N1 (stereo not shown)"
result = "> 1900 nM"

[[record]]
molecule = "CC(C)(C)c1ccc(NC(=O)OCc2cc(F)c3c(c2)C(=O)N(C2CCC(=O)NC2=O)C3)cc1 (stereo not shown)"
result = "> 1900 nM"

[[record]]
molecule = "COc1cc(COC(=O)Nc2cccc(OC3CC3)c2)cc2c1CN(C1CCC(=O)NC1=O)C2=O (stereo not shown)"
result = "≤ 600 nM"

[[record]]
molecule = "CC(C)(C)c1cccc(NC(=O)OCc2cc(F)c3c(c2)C(=O)N(C2CCC(=O)NC2=O)C3)c1 (stereo not shown)"
result = "> 1900 nM"


====

Target: GSPT1 (Homo sapiens, UniProt P15170+Q96SW2)
Sequence (P15170 whole entry): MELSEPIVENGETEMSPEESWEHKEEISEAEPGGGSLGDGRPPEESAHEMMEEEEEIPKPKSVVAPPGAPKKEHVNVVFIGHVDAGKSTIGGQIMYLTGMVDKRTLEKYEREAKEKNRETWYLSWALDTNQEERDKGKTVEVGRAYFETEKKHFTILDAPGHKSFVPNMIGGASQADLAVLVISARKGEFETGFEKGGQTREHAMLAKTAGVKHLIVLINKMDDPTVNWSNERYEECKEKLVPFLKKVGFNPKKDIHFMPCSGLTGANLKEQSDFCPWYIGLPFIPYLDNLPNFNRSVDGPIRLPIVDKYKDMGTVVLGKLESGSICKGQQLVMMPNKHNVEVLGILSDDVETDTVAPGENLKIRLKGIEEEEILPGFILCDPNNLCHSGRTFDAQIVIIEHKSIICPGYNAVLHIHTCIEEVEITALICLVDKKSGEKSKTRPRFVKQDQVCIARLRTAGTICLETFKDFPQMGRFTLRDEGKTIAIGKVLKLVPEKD
Sequence (Q96SW2 whole entry): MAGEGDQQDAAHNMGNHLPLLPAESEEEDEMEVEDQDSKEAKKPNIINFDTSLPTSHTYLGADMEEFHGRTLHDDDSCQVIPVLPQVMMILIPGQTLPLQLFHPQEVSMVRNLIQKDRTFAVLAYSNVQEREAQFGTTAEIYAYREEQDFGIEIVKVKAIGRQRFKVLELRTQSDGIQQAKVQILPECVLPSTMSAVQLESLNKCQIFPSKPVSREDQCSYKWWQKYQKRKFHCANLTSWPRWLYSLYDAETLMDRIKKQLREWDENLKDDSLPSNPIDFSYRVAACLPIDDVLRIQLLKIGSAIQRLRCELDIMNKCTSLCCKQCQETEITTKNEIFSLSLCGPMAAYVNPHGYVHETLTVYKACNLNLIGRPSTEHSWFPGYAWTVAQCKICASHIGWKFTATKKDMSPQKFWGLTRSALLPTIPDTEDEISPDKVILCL
Sequence (Q16531 whole entry partner): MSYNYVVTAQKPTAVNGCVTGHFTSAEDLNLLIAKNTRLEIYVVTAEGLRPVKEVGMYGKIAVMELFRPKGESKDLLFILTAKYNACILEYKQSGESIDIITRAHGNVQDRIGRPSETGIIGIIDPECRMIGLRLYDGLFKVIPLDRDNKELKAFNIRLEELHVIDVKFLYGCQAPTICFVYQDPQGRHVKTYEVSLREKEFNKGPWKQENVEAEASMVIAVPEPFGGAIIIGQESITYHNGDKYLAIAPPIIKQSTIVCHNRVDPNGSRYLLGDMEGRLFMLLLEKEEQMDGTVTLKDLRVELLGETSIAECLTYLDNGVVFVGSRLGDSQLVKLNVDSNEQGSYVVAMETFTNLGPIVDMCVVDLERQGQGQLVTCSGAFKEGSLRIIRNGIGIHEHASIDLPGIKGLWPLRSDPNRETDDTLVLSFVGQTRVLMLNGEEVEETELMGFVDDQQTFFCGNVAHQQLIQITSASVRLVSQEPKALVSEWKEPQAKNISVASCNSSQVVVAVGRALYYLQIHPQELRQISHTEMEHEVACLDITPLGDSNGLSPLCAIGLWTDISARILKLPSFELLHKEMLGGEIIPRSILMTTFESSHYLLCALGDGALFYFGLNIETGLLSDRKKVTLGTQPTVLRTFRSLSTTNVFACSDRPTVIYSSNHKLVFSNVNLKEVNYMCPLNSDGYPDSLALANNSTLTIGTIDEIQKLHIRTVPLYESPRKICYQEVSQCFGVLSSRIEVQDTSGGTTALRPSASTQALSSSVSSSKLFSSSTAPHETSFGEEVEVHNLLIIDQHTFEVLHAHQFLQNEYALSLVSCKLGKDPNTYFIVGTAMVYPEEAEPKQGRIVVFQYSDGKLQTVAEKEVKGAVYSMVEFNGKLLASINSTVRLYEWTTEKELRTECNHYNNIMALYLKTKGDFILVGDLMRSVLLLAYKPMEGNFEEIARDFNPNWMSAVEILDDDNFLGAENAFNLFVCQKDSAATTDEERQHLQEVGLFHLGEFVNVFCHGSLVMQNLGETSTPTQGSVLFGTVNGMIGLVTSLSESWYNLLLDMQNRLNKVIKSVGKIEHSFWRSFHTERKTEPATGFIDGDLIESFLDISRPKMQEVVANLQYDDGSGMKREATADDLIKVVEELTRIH
Experiment: GSPT1 degradation immunofluorescence assay in CAL-51 cells
Type: cell-based
Parameters: endogenous in cells; host or cells: CAL-51 (DSMZ ACC302)
Conditions: 6 hours, Table 5B, read-out: Activity for GSPT1 degradation, Code (DC50)
Below, each of the compounds is paired with its reported DC50 value.
VALUE_KIND: DC50

[[record]]
compound = "O=C1CCC(N2Cc3c(F)cc(COC(=O)Nc4ccc(F)c(OC(F)(F)F)c4)cc3C2=O)C(=O)N1 (stereo not drawn)"
result = "30 to 300 nM"

[[record]]
compound = "CC(C)(C)c1ccc(NC(=O)OCc2cc(F)c3c(c2)C(=O)N(C2CCC(=O)NC2=O)C3)cn1 (stereo not drawn)"
result = "≤ 30 nM"

[[record]]
compound = "Cc1cc(NC(=O)OCc2cc(F)c3c(c2)C(=O)N(C2CCC(=O)NC2=O)C3)cnc1-c1ccccc1 (stereo not drawn)"
result = "≤ 30 nM"

[[record]]
compound = "CC1(C)COc2cc(NC(=O)OCc3cc(F)c4c(c3)C(=O)N(C3CCC(=O)NC3=O)C4)ccc21 (stereo not drawn)"
result = "≤ 30 nM"

[[record]]
compound = "COc1cc(COC(=O)Nc2cc(OC(F)(F)F)ccc2F)cc2c1CN(C1CCC(=O)NC1=O)C2=O (stereo not drawn)"
result = "> 300 nM"

[[record]]
compound = "O=C1CCC(N2Cc3c(F)cc(COC(=O)Nc4ccc(-c5ccccc5F)c(F)c4)cc3C2=O)C(=O)N1 (stereo not drawn)"
result = "≤ 30 nM"

[[record]]
compound = "COc1cc(COC(=O)Nc2ccc(C3CCC3)cc2)cc2c1CN(C1CCC(=O)NC1=O)C2=O (stereo not drawn)"
result = "≤ 30 nM"

[[record]]
compound = "C[C@@H]1CCCN1c1ccc(NC(=O)OCc2cc(F)c3c(c2)C(=O)N(C2CCC(=O)NC2=O)C3)cn1 (stereo partly drawn)"
result = "≤ 30 nM"

[[record]]
compound = "O=C1CCC(N2Cc3c(F)cc(COC(=O)Nc4cc(F)c(F)c(Cl)c4)cc3C2=O)C(=O)N1 (stereo not drawn)"
result = "≤ 30 nM"

[[record]]
compound = "Cc1ccc(NC(=O)OCc2ccc3c(c2Cl)C(=O)N(C2CCC(=O)NC2=O)C3)cc1Cl (stereo not drawn)"
result = "> 300 nM"

[[record]]
compound = "O=C1CCC(N2Cc3c(F)cc(COC(=O)Nc4ccc(C5CCC5)cc4)cc3C2=O)C(=O)N1 (stereo not drawn)"
result = "≤ 30 nM"

[[record]]
compound = "Cc1cc(Cl)cc(NC(=O)OCc2cc(F)c3c(c2)C(=O)N(C2CCC(=O)NC2=O)C3)c1 (stereo not drawn)"
result = "30 to 300 nM"

[[record]]
compound = "COc1cc(COC(=O)Nc2ccc(F)c(OC(F)(F)F)c2)cc2c1CN(C1CCC(=O)NC1=O)C2=O (stereo not drawn)"
result = "≤ 30 nM"

[[record]]
compound = "COc1cc(COC(=O)Nc2cc(C)cc(F)c2)cc2c1CN(C1CCC(=O)NC1=O)C2=O (stereo not drawn)"
result = "≤ 30 nM"

[[record]]
compound = "Cc1ccc(NC(=O)OCc2ccc3c(c2C)C(=O)N(C2CCC(=O)NC2=O)C3)cc1Cl (stereo not drawn)"
result = "> 300 nM"

